test system: Candida glabrata (ATCC no. 48435); experiment: MIC determination by broth microdilution (NCCLS), visual scoring; assay type: cell-based; details: Nakaseomyces glabratus, ATCC48435, read-out: MIC80 C. glabrata
Task for the reader: assign each of the following compounds its reported MIC80.
Numbers only; they are read as µg/mL.

Q) Sample CN1C(=O)C(/C=N/Nc2ccccc2)C(=O)N(C)C1=O [BA73] — what was its MIC80?
A) 2

Q) Sample O=C1NC(=O)C(/C=N/Nc2ccc([N+](=O)[O-])cc2)C(=O)N1 [BA22] — what was its MIC80?
A) 1

Q) Sample CN1C(=O)C(/C=N/Nc2ccc([N+](=O)[O-])cc2)C(=O)N(C)C1=O [BA23] — what was its MIC80?
A) 2

----------
Task for the reader: assign each of the following molecules its reported MIC80 C. glabrata.
system: Candida glabrata (ATCC no. 48435); assay: MIC determination by broth microdilution (NCCLS), visual scoring; type: cell-based; settings: Table 7, Phenylhydrazones of 5-Acylpyrimidinetriones

Q) Sample "O=C1NC(=O)C(C(=NNc2ccc(C(=O)O)cc2)C2C(=O)NC(=O)NC2=O)C(=O)N1" — what was its MIC80 C. glabrata?
A) 125 µg/mL

Q) Sample CC(=NNc1ccc([N+](=O)[O-])cc1)C1C(=O)NC(=O)N(c2ccccc2)C1=O (stereo not drawn) — what was its MIC80 C. glabrata?
A) 16 µg/mL
